- target_or_test_system: IDH1-R132C recombinant protein (Homo sapiens (Human), UniProt O75874, R132C)
- Sequence (O75874 whole entry R132C): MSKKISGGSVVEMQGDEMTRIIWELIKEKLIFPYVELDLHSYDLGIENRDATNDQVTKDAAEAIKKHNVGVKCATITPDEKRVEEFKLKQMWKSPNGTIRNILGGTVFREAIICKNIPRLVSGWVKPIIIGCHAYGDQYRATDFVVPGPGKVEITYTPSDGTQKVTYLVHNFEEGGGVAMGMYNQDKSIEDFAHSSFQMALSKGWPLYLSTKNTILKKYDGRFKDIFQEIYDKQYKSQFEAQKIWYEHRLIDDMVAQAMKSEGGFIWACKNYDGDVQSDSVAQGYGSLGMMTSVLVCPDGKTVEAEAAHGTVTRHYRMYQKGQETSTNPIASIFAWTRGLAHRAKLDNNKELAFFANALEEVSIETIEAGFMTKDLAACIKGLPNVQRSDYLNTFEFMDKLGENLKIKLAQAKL
- protocol_notes: IDH1-R132C enzymatic assay (diaphorase/resazurin readout of NADPH consumption)
- run_conditions: IDH1-R132C enzyme; read-out: Enzyme IDH1 R132C IC50 (Range)
pIC50: −log10 of the molar value.
Listing of entries alongside the reported pIC50.

**Query** Which pIC50 reading was recorded for the compound Cc1[nH]ncc1-c1ccnc(N[C@@H](C)c2cc3cc(Cl)ccc3[nH]c2=O)n1 [I-83] ?
**Result** 5.00 to 6.00

**Query** Which pIC50 reading was recorded for the compound CC(C)Cn1nccc1-c1ccnc(N[C@@H](C)c2cc3cc(Cl)ccc3[nH]c2=O)n1 [I-85] ?
**Result** 6.00 to 7.00

Next:
**Query** Which pIC50 reading was recorded for the compound COc1nc(N[C@H](C)c2nc3cc(Cl)ccc3[nH]c2=O)ncc1C#N [I-157] ?
**Result** 5.00 to 6.00

**Query** Which pIC50 reading was recorded for the compound COC(=O)C(c1ccnc(N[C@@H](C)c2cc3cc(Cl)ccc3[nH]c2=O)n1)S(C)(=O)=O (stereo partly shown) [I-134] ?
**Result** < 5.00

* * *

- target_or_test_system: IDH1-R132H recombinant protein (Homo sapiens (Human), UniProt O75874, R132H)
- Sequence (O75874 whole entry R132H): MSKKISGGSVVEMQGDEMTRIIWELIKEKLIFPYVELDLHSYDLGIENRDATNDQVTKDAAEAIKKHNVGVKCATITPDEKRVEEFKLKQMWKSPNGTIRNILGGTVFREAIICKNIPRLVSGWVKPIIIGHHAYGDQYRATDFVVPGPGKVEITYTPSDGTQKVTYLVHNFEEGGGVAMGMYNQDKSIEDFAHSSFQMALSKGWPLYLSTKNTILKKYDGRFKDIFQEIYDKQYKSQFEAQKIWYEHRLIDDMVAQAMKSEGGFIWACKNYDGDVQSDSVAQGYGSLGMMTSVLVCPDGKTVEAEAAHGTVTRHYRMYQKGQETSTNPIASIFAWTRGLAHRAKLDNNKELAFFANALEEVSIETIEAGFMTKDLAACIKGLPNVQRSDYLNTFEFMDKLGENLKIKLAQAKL
- protocol_notes: IDH1-R132H enzymatic assay (diaphorase/resazurin readout of NADPH consumption)
- run_conditions: IDH1-R132H enzyme; read-out: Enzyme IDH1 R132H IC50 (Range)
Listing of entries alongside the reported IC50.

Observe how each entry below is paired with its result.
**Query** Which IC50 reading was recorded for the compound Cc1[nH]ncc1-c1ccnc(N[C@@H](C)c2cc3cc(Cl)ccc3[nH]c2=O)n1 ?
**Result** 100 to 1000 nM

**Query** Which IC50 reading was recorded for the compound COc1nc(N[C@H](C)c2nc3cc(Cl)ccc3[nH]c2=O)ncc1C#N ?
**Result** 100 to 1000 nM

Next, consider the following compound.
**Query** Which IC50 reading was recorded for the compound CC(C)Cn1nccc1-c1ccnc(N[C@@H](C)c2cc3cc(Cl)ccc3[nH]c2=O)n1 ?
**Result** 100 to 1000 nM
